Known protein stability index of a selection of sequences
Assay notes: protein stability index of a GFP-peptide fusion (GPS, HEK-293T) (PSI 1-6); higher = more stable;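 also: 24-mer peptide tiles fused after GFP, lentivirally expressed, FACS-sorted into six equal bins by GFP/DsRed ratio, decoded by Illumina sequencing, PSI is the read-weighted mean bin number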
Condition context: treatment: MLN4924 1 uM, 8 h; c terminus: a fixed tail appended
Property: protein stability index

>  <Sequence code>
DLEEERREEEEKTPPETKPDPPVN [PCMTD2]

>  <Observed>
5.48

$$$$
>  <Sequence code>
DISIHHFTCDEENVFAAVGRGLYV [WDR41]

>  <Observed>
2.61

$$$$
>  <Sequence code>
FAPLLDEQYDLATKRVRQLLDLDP [GOLPH3]

>  <Observed>
2.94

$$$$
>  <Sequence code>
LPIIQSNQVSSNSWGIAGETELAL [DLC1]

>  <Observed>
3.63

$$$$
>  <Sequence code>
PSRGGNQLPRPPIVGGNKGRSGPL [WAS]

>  <Observed>
4.73

$$$$
>  <Sequence code>
HDRNMDWVSTQLQATCNVHKSAFN [FADS1]

>  <Observed>
3.46

$$$$
>  <Sequence code>
EPTAAATARRSKRERREEDRAPAE [PWWP2B]

>  <Observed>
5.45

$$$$
>  <Sequence code>
ELQQRNPKAERLRWSPAQEESFRQ [ZNF232]

>  <Observed>
3.49

$$$$

---

Assay notes: protein stability index of a GFP-peptide fusion (GPS, HEK-293T) (PSI 1-6); higher = more stable
Condition context: treatment: MLN4924 1 uM, 8 h; c terminus: a fixed tail appended

>  <Sequence code>
SWCLKRYDLEYWAFHDGQRSRLRP [TRIM14]

>  <protein stability index>
2.33

$$$$
>  <Sequence code>
RRSSLVITTKIFWGGKAETERGLS [KCNAB2]

>  <protein stability index>
2.15

$$$$
>  <Sequence code>
KCIFTQFRIILGDFDYNAIDNANR [PKD2L1]

>  <protein stability index>
2.52

$$$$
>  <Sequence code>
EEWLDILGNGLLRKKTLVPGPPGS [FKBP8]

>  <protein stability index>
2.78

$$$$
>  <Sequence code>
ESQASRKEEGLPEEEPSHVTGREG [ZNF8]

>  <protein stability index>
5.59

$$$$
>  <Sequence code>
LTLVLVASVLLQAVLYPRFMGTIS [CD207]

>  <protein stability index>
3.25

$$$$

---

Known protein stability index of a selection of sequences
Assay notes: protein stability index of a GFP-peptide fusion (GPS, HEK-293T) (PSI 1-6); higher = more stable
Condition context: treatment: DMSO; c terminus: a fixed tail appended
Property: protein stability index

>  <Sequence code>
ISDALIRRVHLTEDQWGKGTLTPR [TRIM9]

>  <Observed>
2.92

$$$$
>  <Sequence code>
TLNIKETDSKELSMAKEVIAKELS [ZBED1]

>  <Observed>
3.87

$$$$
>  <Sequence code>
APRFNQQLYTAYILENRPPGSLLC [PCDHGC5]

>  <Observed>
2.1

$$$$
>  <Sequence code>
EPWLPLTDGRSPRRSRDPGYDHLW [PLEKHN1]

>  <Observed>
3.68

$$$$
>  <Sequence code>
LLQGAGLDVERWLKPAMTQAQDEV [FCHSD1]

>  <Observed>
3.6

$$$$
>  <Sequence code>
QPELPCAMAMGTPSTTERISTSGQ [PXN]

>  <Observed>
4.72

$$$$

This collection of values is drawn from the supplement of paper PMC10567573.
